Quick reference for drug sensitivity score among some compounds
- System: CAL-120
- assayProcedure: drug sensitivity score (DSS), CellTox Green (DSS (AUC-based score)); higher = stronger drug effect (viability inhibition or cytotoxicity); extreme values may be limits of the assay
- conditionSummary: incubation time: 72 h

# compound, systemUnderTest, drug sensitivity score
rows = [
    ("O=P1(NCCCl)OCCCN1CCCl (stereo not given) [Ifosfamide]", "CAL-120", 0),
    ("N[C@@H](CSC(c1ccccc1)(c1ccccc1)c1ccccc1)C(=O)O", "CAL-120", 0),
    ("COc1cc([C@@H]2c3cc4c(cc3[C@@H](O[C@@H]3O[C@@H]5CO[C@@H](C)O[C@H]5[C@H](O)[C@H]3O)[C@H]3COC(=O)[C@H]23)OCO4)cc(OC)c1O [Etoposide]", "CAL-120", 1.57),
    ("Cn1c(CCCC(=O)O)nc2cc(N(CCCl)CCCl)ccc21", "CAL-120", 0),
    ("COc1cc2nccc(Oc3ccc(NC(=O)C4(C(=O)Nc5ccc(F)cc5)CC4)cc3)c2cc1OC [Cabozantinib]", "CAL-120", 0),
    ("CC(=O)Nc1ccc(C(=O)Nc2ccccc2N)cc1", "CAL-120", 0),
    ("Cn1c(Nc2ccc(C(F)(F)F)cc2)nc2cc(Oc3ccnc(-c4ncc(C(F)(F)F)[nH]4)c3)ccc21", "CAL-120", 0),
    ("CS(=O)(=O)c1ccc(C2=C(c3ccccc3)C(=O)OC2)cc1", "CAL-120", 0),
    ("Oc1nc(-c2ccc(C(F)(F)F)cc2)nc2c1CSCC2", "CAL-120", 0),
    ("CN(N=O)C(=O)N[C@@H](C=O)[C@@H](O)[C@H](O)[C@H](O)CO", "CAL-120", 0),
]
